Biological target: Muscarinic acetylcholine receptor M4 (Homo sapiens)
Test: M4-linked GIRK flux change, two-sided – cell-based, HEK293 M4/GIRK, thallium flux, BTC-AM, M4 allosteric agonist project, primary screen (AID 625);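 further: thallium influx through GIRK channels coupled to M4 in HEK293 cells with BTC-AM dye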
Settings: at 10 µM, actives lie on both sides
measured property: fluorescence slope

CCOC(=O)c1ccc(NC(=O)CCc2nc(-c3ccc(C)cc3)no2)cc1 :: 0.0041
CN(CC(=O)Nc1ccncc1)S(=O)(=O)c1ccccc1 :: 0.00615
COc1ccc(CCNC(=O)c2nc3ncccn3n2)cc1OC :: 0.00528
COc1ccc(OC)c(NC(=O)C2CCN(c3cc(-c4ccccc4)nc4ncnn34)CC2)c1 :: 0.00653
Cc1ccc(CNC(=O)C2CCN(S(=O)(=O)c3c(C)noc3C)CC2)cc1 :: 0.00571
O=C(CCN1CCc2ccccc2CC1)c1ccc2c(c1)OCCO2 :: 0.00461
Cn1c(Cc2cccs2)nnc1SCC(=O)N1CCc2ccccc21 :: 0.00472
Cc1ccsc1C1C2=C(CCCC2=O)Nc2ncnn21 (stereo not drawn) :: 0.00358
O=C(COC(=O)c1ccc(NS(=O)(=O)c2ccc3c(c2)OCCO3)cc1)NCC1CCCO1 (stereo not drawn) :: 0.00638
CCOc1ccc(NC(=O)CN(C)S(=O)(=O)c2cccs2)cc1 :: 0.00617
COc1cc(-c2nc(-c3cccc(C(F)(F)F)c3)no2)cc(OC)c1OC :: 0.00715
CC(C)CC(=O)CN1C(=O)C2(OCCO2)c2ccccc21 :: 0.00852
O=C1c2ccccc2-c2nc3ncnn3c(-c3ccccc3)c21 :: 0.00449
Cc1cc(C2C(C#N)=C(N)SC(N)=C2C#N)c(C)s1 :: 0.00245
CCOC(=O)c1nn(-c2sc(C(=O)OC)c(C)c2C(=O)OC)cc1O :: 0.00503
Oc1ccc(N2CCN(C(c3cccnc3)c3nnnn3Cc3ccccc3)CC2)cc1 (stereo not drawn) :: 0.0054
CCOc1ccccc1CN1C(=O)c2ccccc2C1C(=O)NCC1CCCO1 (stereo not drawn) :: 0.00509
CCCCn1nnnc1SCC(=O)N1CCN(C(=O)c2ccco2)CC1 :: 0.00637
CCCCCCNS(=O)(=O)c1ccc(Cl)s1 :: 0.00433
CC(=O)Nc1ccc(Oc2cc(C#N)c(C#N)cc2N2CCCCCC2)cc1 :: 0.00486
Cc1ncoc1C(=O)Nc1cccc(Cl)c1C :: 0.00599
COCCn1c(SCC(=O)Nc2nnc(C)s2)nnc1-c1c[nH]c2ccccc12 :: 0.00466
CCOC(=O)c1sc(NC(=O)CSc2nc3c(cc2C#N)CCC3)c(C#N)c1C :: 0.00501
Cc1ccc(-n2ncc3c(Nc4c(C)n(C)n(-c5ccccc5)c4=O)ncnc32)c(C)c1 :: 0.0045
CC(C)OP(=O)(c1ccc(N(C)C)cc1)C(O)c1ccccc1F (stereo not drawn) :: 0.00489
COc1cc(NC(=O)Cc2nn(C)c(=O)c3ccccc23)cc(OC)c1 :: 0.00514
O=C(Cn1cnc2sc(-c3ccccc3)cc2c1=O)N1CCOCC1 :: 0.00489
O=C(O)C1CC(=O)N(c2ccc(Br)cc2)C1 (stereo not drawn) :: 0.00384
O=C(Nc1ccc(Cl)c(Cl)c1)Nc1cc(C(=O)N2CCOCC2)ccc1N1CCCCC1 :: 0.00555
CCCn1c(=N)n(CCOc2ccc(OC)cc2)c2ccccc21 :: 0.00387
COc1cccc(C(=O)Nc2cccc(C(=O)N3CCOCC3)c2)c1 :: 0.00825
CCOC(=O)c1cnn(-c2ncnc3c2cnn3Cc2ccccc2)c1N :: 0.0057
CC1CCN(S(=O)(=O)c2ccc(NC(=O)CSc3nnnn3C)cc2)CC1 :: 0.00682
